# system tested: Ribonuclease pancreatic (Bos taurus) (UniProt P61823)
# Sequence (P61823 whole entry): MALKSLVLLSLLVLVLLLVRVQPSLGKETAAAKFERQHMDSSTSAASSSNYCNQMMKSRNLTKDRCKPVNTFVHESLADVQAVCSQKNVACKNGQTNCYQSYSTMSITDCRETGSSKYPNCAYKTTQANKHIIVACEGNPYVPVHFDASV
# assay procedure: Inhibition of bovine pancreatic RNase A ribonucleolytic activity assessed as reduction of tRNA degradation at 0.32 mM by precipitation assay relative to control
# Set-up: scale not given: the % may be the effect or the level left
attribute measured: Activity (%)

Here is how some compounds turned out for Activity.
smiles_record=O=c1ccn([C@@H]2O[C@H](CN3CCOCC3)[C@@H](O)[C@H]2O)c(=O)[nH]1 observed_measurement=12
smiles_record=Cc1cn([C@H]2C[C@H](O)[C@@H](CN3CCCCC3)O2)c(=O)[nH]c1=O observed_measurement=5
smiles_record=O=c1ccn([C@@H]2O[C@H](CN3CCCCC3)[C@@H](O)[C@H]2O)c(=O)[nH]1 observed_measurement=12

A. O=c1ccn([C@@H]2O[C@H](CN3CCCC3)[C@@H](O)[C@H]2O)c(=O)[nH]1
B. Cc1cn([C@H]2C[C@H](O)[C@@H](CN3CCCC3)O2)c(=O)[nH]c1=O
C. CCOC(=O)C1CCN(C[C@H]2O[C@@H](n3ccc(=O)[nH]c3=O)[C@H](O)[C@@H]2O)CC1
Order these by Activity, descending, and give the full ranking. Please write the labels in the order that was asked for. C, A, B
(C: 30%, A: 12%, B: 5%)

Where these numbers come from: ChEMBL document CHEMBL1140896
